Please go through the items and note down their melting point.

Example entries begin here.
Enquiry: melting point lookup needed for O=C(c1ccccc1F)N1CC2OCc3cnnn3[C@@H]2C1 (stereo partly shown) , thanks.
Return: 188 to 190 °C

Enquiry: melting point lookup needed for O=S(=O)(c1ccc(F)cc1)N1CC2OCc3cnnn3[C@@H]2C1 (stereo partly shown) , thanks.
Return: 208 to 209 °C

Enquiry: melting point lookup needed for c1ccc(-c2nnn3c2CO[C@@H]2CNC[C@H]23)cc1 (relative stereo) , thanks.
Return: 165 to 167 °C

Switching to the query record.
Enquiry: melting point lookup needed for O=C(c1cccs1)N1CC2OCc3cnnn3[C@@H]2C1 (stereo partly shown) , thanks.
Return: 186 to 188 °C
